System Under Test: Capsid scaffolding protein (Herpes simplex virus (type 1 / strain 17), UniProt P10210)
Sequence (P10210 1-247 limits assumed): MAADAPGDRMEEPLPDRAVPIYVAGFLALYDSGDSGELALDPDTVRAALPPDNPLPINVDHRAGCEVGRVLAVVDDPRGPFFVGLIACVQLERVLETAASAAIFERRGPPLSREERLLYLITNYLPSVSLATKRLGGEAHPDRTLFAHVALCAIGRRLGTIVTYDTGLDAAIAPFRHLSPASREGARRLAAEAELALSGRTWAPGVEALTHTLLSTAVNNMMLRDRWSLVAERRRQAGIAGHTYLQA
Test Summary: Inhibitory concentration for peptidolytic activity against herpes simplex type-1 (HSV-1) protease at 10 uM.
pIC50: −log10 of the molar value.
Could you label it Fulfilled if measured pIC50 is 6 or higher, and Not fulfilled otherwise?

# Structure, Class
data = [
    ("C[C@H](NC(=O)OCc1ccccc1)c1nc2cc(-c3ccccc3)sc2c(=O)o1", "Not fulfilled"),
    ("NC(=O)C[C@H](NC(=O)OCc1ccccc1)c1nc2ccsc2c(=O)o1", "Not fulfilled"),
    ("O=C(N[C@@H](CO)c1nc2ccsc2c(=O)o1)OCc1ccccc1", "Fulfilled"),
    ("NC(=O)CC[C@H](NC(=O)OCc1ccccc1)c1nc2ccsc2c(=O)o1", "Not fulfilled"),
    ("O=C(N[C@@H](Cc1ccccc1)c1nc2ccsc2c(=O)o1)OCc1ccccc1", "Not fulfilled"),
    ("Cc1csc2c(=O)oc([C@H](C)NC(=O)OCc3ccccc3)nc12", "Not fulfilled"),
    ("C[C@H](NC(=O)OCc1ccccc1)c1nc2ccsc2c(=O)o1", "Fulfilled"),
    ("O=C(NCc1nc2ccsc2c(=O)o1)OCc1ccccc1", "Not fulfilled"),
    ("CC(C)[C@H](NC(=O)OCc1ccccc1)c1nc2ccsc2c(=O)o1", "Not fulfilled"),
]

----------
Test Summary: Half life was determined
Type: ADME
Conditions Used: rat
Metric Name: half-life (h)

# Structure, Sign, Endpoint Value
measured = [
    ("Cc1cccc2nc([C@H](C)NC(=O)OCc3ccccc3)oc(=O)c12", "=", 33),
    ("C[C@H](NC(=O)OCc1ccccc1)c1nc2ccsc2c(=O)o1", ">", 100),
    ("C[C@H](NC(=O)OCc1ccccc1)c1nc2ccccc2c(=O)o1", "=", 14),
]

----------
# IC50 per record follows
Test Summary: Inhibitory concentration for peptidolytic activity against elastase
Metric Name: IC50 (µM)

# Structure, Metric Name, Unit, Endpoint Value
rows = [
    ("C[C@H](NC(=O)OCc1ccccc1)c1nc2ccsc2c(=O)o1", "IC50", "µM", 120),
    ("C[C@H](NC(=O)OCc1ccccc1)c1nc2ccccc2c(=O)o1", "IC50", "µM", 45),
    ("Cc1cccc2nc([C@H](C)NC(=O)OCc3ccccc3)oc(=O)c12", "IC50", "µM", 0.22),
]
